- Target desc: TUSC2
- Assay notes: pooled miR-30 sensor sort-seq; sequence = guide strand; further: reference of the scale not given here
- Protocol conditions: shRNA
Experimental readout: sensor-assay potency score (higher = more potent)
Give the figure by itself; no unit, no explanation.

Sample AAGCTTGCTCAGCTCCTGCTGC ; sensor-assay potency score (higher = more potent) observed: -0.817

Sample TCCTCATCATAGAACATAGAGC ; sensor-assay potency score (higher = more potent) observed: -1.99

Sample ATTCTTATGCACTCGCCTCAGC ; sensor-assay potency score (higher = more potent) observed: -1.06

Sample TCTCCTCATAGAACTCGTGAGC ; sensor-assay potency score (higher = more potent) observed: -1.05

Sample TAGAACATAGAGCCGCGGCGCG ; sensor-assay potency score (higher = more potent) observed: -1.07

Sample TCTTGGTGACGATTGTCTCCTC ; sensor-assay potency score (higher = more potent) observed: -0.566

Sample TCATAGAACATAGAGCCGCGGC ; sensor-assay potency score (higher = more potent) observed: -0.488

Sample TTGGTGACGATTGTCTCCTCAT ; sensor-assay potency score (higher = more potent) observed: 0.0125

Sample TTCTTGGTGACGATTGTCTCCT ; sensor-assay potency score (higher = more potent) observed: -0.377

###

- Target desc: LAMB3
- Assay notes: pooled miR-30 sensor sort-seq; sequence = guide strand
- Protocol conditions: shRNA
Entry flag: 1 if sensor-assay potency score (higher = more potent) reaches -0.4; -1 if it does not.

Does sensor-assay potency score (higher = more potent) meet or surpass -0.4 for TTACTAGCTACACACCAGGGGT ?
-1

Does sensor-assay potency score (higher = more potent) meet or surpass -0.4 for TAGGTCACAGCGCTCTCCCTGC ?
-1

Does sensor-assay potency score (higher = more potent) meet or surpass -0.4 for TATTTTTTCAAACTGCTCCCTC ?
1

Does sensor-assay potency score (higher = more potent) meet or surpass -0.4 for TCTGACATCTTCCTCCATCTGG ?
1

###

Please provide measured sensor-assay potency score (higher = more potent) for the entries that follow.
- Target desc: C19orf26
- Assay notes: pooled miR-30 sensor sort-seq; sequence = guide strand
- Protocol conditions: shRNA
Give the figure by itself; no unit, no explanation.

Sample TCCGTCAGTGTGTACCGGCGAC ; sensor-assay potency score (higher = more potent) observed: -0.95

Sample TCGCCTGAGTCACACTCGTGGA ; sensor-assay potency score (higher = more potent) observed: -1.57

Sample TTCGGTCTCCGCATCCTGGCAC ; sensor-assay potency score (higher = more potent) observed: -0.126

Sample TTGTCCTGCGTCTTGCGGCTCT ; sensor-assay potency score (higher = more potent) observed: -0.61

Sample TGAGTCACACTCGTGGATGGTG ; sensor-assay potency score (higher = more potent) observed: -0.617

Sample TTGCAGAGGAGCAGGACGCCAG ; sensor-assay potency score (higher = more potent) observed: -1.16

###

- Target desc: CHRM2
- Assay notes: pooled miR-30 sensor sort-seq; sequence = guide strand
- Protocol conditions: shRNA
Class (by sensor-assay potency score (higher = more potent)) -- bucket 1 (below -0.4), bucket 2 (-0.4 to below -0.05), bucket 3 (-0.05 or more)

Any idea which band TATAAGGACTTGTAAGAGCCAG is in?
bucket 2

Any idea which band TTTGTGACACAGAAGTACCTGT is in?
bucket 3

Any idea which band TATTCTGCTTTTCATCTCCATT is in?
bucket 1

Any idea which band TACATGAGTCACTTTTTGGGGT is in?
bucket 2

Any idea which band TTAAAGGTCTTCTTGAAGGTGG is in?
bucket 3

Any idea which band TTCTTTATCCTGCTCTTGCTGG is in?
bucket 2

Any idea which band TTAGAGTTCTCATCTTTGGAAT is in?
bucket 1

Any idea which band TATTAGAGGCAACAGCACTGAC is in?
bucket 1

Any idea which band TCATCTTCACAATCTTGCGGGC is in?
bucket 2

Any idea which band TTTCATCTCCATTCTGACCTGA is in?
bucket 3

Any idea which band TTCATAACTGAGGCATTGCTGA is in?
bucket 1

Any idea which band TAGAAGGCTGCAATAGCCGTAC is in?
bucket 2

Any idea which band TTAATGAGCACCATGACATTGT is in?
bucket 3

###

- Target desc: EIF4EBP2
- Assay notes: pooled miR-30 sensor sort-seq; sequence = guide strand
- Protocol conditions: shRNA
Entry flag: 1.0 if sensor-assay potency score (higher = more potent) reaches -0.8; 0.0 if it does not.

Does sensor-assay potency score (higher = more potent) meet or surpass -0.8 for TAAATGATTCGAGTTCCTCCCG ?
1.0

Does sensor-assay potency score (higher = more potent) meet or surpass -0.8 for AAATGATTCGAGTTCCTCCCGG ?
1.0

Does sensor-assay potency score (higher = more potent) meet or surpass -0.8 for AATTGTTTACTTCTACTTTGGA ?
1.0

Does sensor-assay potency score (higher = more potent) meet or surpass -0.8 for TCAAATTGTTTACTTCTACTTT ?
1.0

Does sensor-assay potency score (higher = more potent) meet or surpass -0.8 for TTGTTCAAATTGTTTACTTCTA ?
1.0

Does sensor-assay potency score (higher = more potent) meet or surpass -0.8 for TGGTGCAATAGTCATGAGGTAG ?
0.0

Does sensor-assay potency score (higher = more potent) meet or surpass -0.8 for TTGGAGTCTTCAATTAAGGTGC ?
1.0

Does sensor-assay potency score (higher = more potent) meet or surpass -0.8 for TAGTCATGAGGTAGCTGCGCGG ?
0.0

Does sensor-assay potency score (higher = more potent) meet or surpass -0.8 for TACTTTGGAGTCTTCAATTAAG ?
0.0

Does sensor-assay potency score (higher = more potent) meet or surpass -0.8 for TTCTACTTTGGAGTCTTCAATT ?
0.0

Does sensor-assay potency score (higher = more potent) meet or surpass -0.8 for TTTCTGTCATAAATGATTCGAG ?
1.0

Does sensor-assay potency score (higher = more potent) meet or surpass -0.8 for ATGTTTCCTGTCGTGATTGTTC ?
0.0

Does sensor-assay potency score (higher = more potent) meet or surpass -0.8 for TTCAATTAAGGTGCCAGGGCTA ?
1.0

###

- Target desc: FAM181B
- Assay notes: pooled miR-30 sensor sort-seq; sequence = guide strand
- Protocol conditions: shRNA
Entry flag: yes if sensor-assay potency score (higher = more potent) reaches -0.8; no if it does not.

Does sensor-assay potency score (higher = more potent) meet or surpass -0.8 for TTCTTGACTCCTCTGGTCCAGT ?
no

Does sensor-assay potency score (higher = more potent) meet or surpass -0.8 for TTGGTTTCTTGACTCCTCTGGT ?
yes

Does sensor-assay potency score (higher = more potent) meet or surpass -0.8 for TTTGTTTTAACACTTGAGGTTG ?
yes

Does sensor-assay potency score (higher = more potent) meet or surpass -0.8 for TTGATGTTGCTGGACGCCGAGT ?
no

Does sensor-assay potency score (higher = more potent) meet or surpass -0.8 for TTCACCTTCCGCTTCGACTTGC ?
yes

Does sensor-assay potency score (higher = more potent) meet or surpass -0.8 for TGAAGCTGAGTAGATCGCGGGT ?
yes

Does sensor-assay potency score (higher = more potent) meet or surpass -0.8 for TTTTGTTTTAACACTTGAGGTT ?
yes

Does sensor-assay potency score (higher = more potent) meet or surpass -0.8 for TTGTTTTAACACTTGAGGTTGT ?
yes

Does sensor-assay potency score (higher = more potent) meet or surpass -0.8 for TAAATACACTGACCTTCGCTGA ?
no

###

- Target desc: RRP12
- Assay notes: pooled miR-30 sensor sort-seq; sequence = guide strand
- Protocol conditions: shRNA
Class (by sensor-assay potency score (higher = more potent)) -- bottom bin = under -0.6, middle bin = from -0.6 up to 0.05, top bin = 0.05 and over

Any idea which band TAGATCTTAGATTCCACTGTGC is in?
top bin

Any idea which band TGCAGCTTCATCTTCTTCCTGC is in?
top bin

Any idea which band TCGACTGTCAGGTCACTCCTTC is in?
middle bin

Any idea which band TCAACTTAGCTGAGACACCAGA is in?
middle bin

Any idea which band TTTCTGGTGCTTGAGCTTCTGG is in?
bottom bin

Any idea which band TTGTAAATCATTCTCACTGGGA is in?
middle bin

Any idea which band TATGTAACTTCACAGCATCGAC is in?
bottom bin

Any idea which band TAACTTCACAGCATCGACTGTC is in?
top bin

###

- Target desc: NAALADL1
- Assay notes: pooled miR-30 sensor sort-seq; sequence = guide strand
- Protocol conditions: shRNA
Please provide measured sensor-assay potency score (higher = more potent) for the entries that follow.
Give the figure by itself; no unit, no explanation.

Sample TAGACGCTCACATTCACCTGGC ; sensor-assay potency score (higher = more potent) observed: 0.571

Sample TCTGTGTACACCAGCACCCCAG ; sensor-assay potency score (higher = more potent) observed: -1.23

Sample TCTCACTGTAGTCACTGACTTT ; sensor-assay potency score (higher = more potent) observed: -1.01

Sample TACAGAGCAGGTCTCTTGCATC ; sensor-assay potency score (higher = more potent) observed: -0.894

Sample TTCCCATACAGCACGTAGCGAT ; sensor-assay potency score (higher = more potent) observed: -0.768

Sample TTGATGTCGGCAGGGTCTGTGT ; sensor-assay potency score (higher = more potent) observed: -1.45
